STUDY SYSTEM: DLX5 HD (UniProt P56178 138-198)
Sequence (P56178 138-198): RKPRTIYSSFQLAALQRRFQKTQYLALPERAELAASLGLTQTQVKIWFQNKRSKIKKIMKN
TEST DESCRIPTION: fluorescence polarization; FP: chloride salt (buffer and salt concentration truncated in material), 5 mM MgCl2, 10 mM TCEP, pH 7.4; 10 nM FAM-DNA; 1 h incubation, temperature not in material
TEST PARAMETERS: label: 5' 6-FAM; blunt; self-complementary, 2 copies
MEASURED ENDPOINT: Kd (nM)
// units = nM; emit number, no label

Looking for the measured Kd of FAM-H-Box (dsDNA) DNA 1: TCTCTAATTAGAGA DNA 2: TCTCTAATTAGAGA , can you help?
383
